Details: 298.15 K; 101.3 kPa; Liquid
Decision: viscosity beneath 1 mPa·s gives Satisfied; viscosity meeting or exceeding 1 mPa·s gives Not satisfied.

[[record]]
molecule = "CCOC(C)=O [ethyl acetate]"
label = "Satisfied"

[[record]]
molecule = "CC(=O)O"
label = "Not satisfied"


Lookup: Lab note: viscosity threshold 1 mPa·s. Does this molecule come in strictly under it? O
Found: Satisfied

Lookup: Same read-out for COC(C)=O [methyl ethanoate] ?
Found: Satisfied

Lookup: How about CO ?
Found: Satisfied

Lookup: Next record, please: CCO
Found: Not satisfied

---

Settings: 293.15 K; 101.3 kPa; Liquid
READOUT_LABEL: viscosity (mPa·s)
Numbers only, in mPa·s.

Example results:
[[record]]
compound = "CCO [ethanol]"
measurement = 1.187

[[record]]
compound = "CO [methanol]"
measurement = 0.585

[[record]]
compound = "O [water]"
measurement = 1.003


Required: viscosity, one value per compound below.
1. COC(C)=O [methyl ethanoate]
2. CC(=O)O [acetic acid]
3. CCOC(C)=O [ethyl acetate]

Found:
1: 0.386; 2: 1.211; 3: 0.452

Origin of measurements: the NIST ThermoML archive (doi:10.1021/je0342825)
